Taken from PubChem BioAssay AID1963851.

- System: 188146-221-R-J1-PDC complex spheroid viability;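 also: spheroids exposed to compounds for seven days; 100% = DMSO vehicle control viability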
- assayProcedure: Anticancer human tumor 188146-221-R-J1-PDC patient-derived colon adenocarcinoma cell line growth inhibition [POLQ]
- particulars: second compound 1 µM; first compound 0.01 µM; active compounds read low
- Method: Multicellular complex tumor spheroid response to Polymerase (POL) inhibitors (novobiocin, ART-558, RP6685) in combination with a variety of drugs and investigational agents in selected tumor cell lines The POL inhibitors (novobiocin, ART-558, and RP6685) were evaluated both individually and in combination with standard of care and investigational anticancer small molecules within a complex spheroid model of solid tumors. . […]

{"compound": "COc1cccc(OCCCN)c1-c1cc(Nc2cnc(C#N)cn2)n[nH]1 + COC1C(OC(N)=O)C(O)C(Oc2ccc3c(O)c(NC(=O)c4ccc(O)c(CC=C(C)C)c4)c(=O)oc3c2C)OC1(C)C", "systemTested": "188146-221-R-J1-PDC complex spheroid viability", "viability, T/C": "90.1%"}
{"compound": "CC[C@@]1(O)C(=O)OCc2c1cc1n(c2=O)Cc2cc3c(CN(C)C)c(O)ccc3nc2-1 + Nc1ccc(C#CCN(C(=O)Cc2ncc(C(F)(F)F)cc2C(F)(F)F)c2ccc(F)cc2)nn1", "systemTested": "188146-221-R-J1-PDC complex spheroid viability", "viability, T/C": "86.4%"}
{"compound": "C=CCn1c(=O)c2cnc(Nc3ccc(N4CCN(C)CC4)cc3)nc2n1-c1cccc(C(C)(C)O)n1 + Nc1ccc(C#CCN(C(=O)Cc2ncc(C(F)(F)F)cc2C(F)(F)F)c2ccc(F)cc2)nn1", "systemTested": "188146-221-R-J1-PDC complex spheroid viability", "viability, T/C": "106%"}
{"compound": "C=CCn1c(=O)c2cnc(Nc3ccc(N4CCN(C)CC4)cc3)nc2n1-c1cccc(C(C)(C)O)n1 + Cc1cccc(N(C)C(=O)C2C(O)CCN2c2nc(C)cc(C(F)(F)F)c2C#N)c1", "systemTested": "188146-221-R-J1-PDC complex spheroid viability", "viability, T/C": "98.5%"}
{"compound": "CCc1c2c(nc3ccc(O)cc13)-c1cc3c(c(=O)n1C2)COC(=O)[C@]3(O)CC + COC1C(OC(N)=O)C(O)C(Oc2ccc3c(O)c(NC(=O)c4ccc(O)c(CC=C(C)C)c4)c(=O)oc3c2C)OC1(C)C", "systemTested": "188146-221-R-J1-PDC complex spheroid viability", "viability, T/C": "91.2%"}
{"compound": "CC[C@@]1(O)C(=O)OCc2c1cc1n(c2=O)Cc2cc3c(CN(C)C)c(O)ccc3nc2-1 + COC1C(OC(N)=O)C(O)C(Oc2ccc3c(O)c(NC(=O)c4ccc(O)c(CC=C(C)C)c4)c(=O)oc3c2C)OC1(C)C", "systemTested": "188146-221-R-J1-PDC complex spheroid viability", "viability, T/C": "104%"}
{"compound": "C=CCn1c(=O)c2cnc(Nc3ccc(N4CCN(C)CC4)cc3)nc2n1-c1cccc(C(C)(C)O)n1 + COC1C(OC(N)=O)C(O)C(Oc2ccc3c(O)c(NC(=O)c4ccc(O)c(CC=C(C)C)c4)c(=O)oc3c2C)OC1(C)C", "systemTested": "188146-221-R-J1-PDC complex spheroid viability", "viability, T/C": "100%"}
{"compound": "CCc1c2c(nc3ccc(O)cc13)-c1cc3c(c(=O)n1C2)COC(=O)[C@]3(O)CC + Cc1cccc(N(C)C(=O)C2C(O)CCN2c2nc(C)cc(C(F)(F)F)c2C#N)c1", "systemTested": "188146-221-R-J1-PDC complex spheroid viability", "viability, T/C": "78.2%"}
{"compound": "COc1cccc(OCCCN)c1-c1cc(Nc2cnc(C#N)cn2)n[nH]1 + Nc1ccc(C#CCN(C(=O)Cc2ncc(C(F)(F)F)cc2C(F)(F)F)c2ccc(F)cc2)nn1", "systemTested": "188146-221-R-J1-PDC complex spheroid viability", "viability, T/C": "111%"}
{"compound": "COc1cccc(OCCCN)c1-c1cc(Nc2cnc(C#N)cn2)n[nH]1 + Cc1cccc(N(C)C(=O)C2C(O)CCN2c2nc(C)cc(C(F)(F)F)c2C#N)c1", "systemTested": "188146-221-R-J1-PDC complex spheroid viability", "viability, T/C": "104%"}
